- assay conditions: octanol/water, Log P
attribute measured: logP
Give only the figure.

Request: Given the compound "CCCc1nn(C)c2c(=O)[nH]c(-c3cc(S(=O)(=O)N4CCN(C)CC4)ccc3OCC)nc12" , write its reported logP.
Result: 7

Request: Identify measured logP associated with "CCC(CC)Nc1cc(C)nc(Oc2c(C)cc(C)cc2C)c1C"
Result: 7

Request: Annotate the compound "CC[C@@H]1C[C@H](N(Cc2cc(C(F)(F)F)cc(C(F)(F)F)c2)C(C)=O)c2cc(C(F)(F)F)ccc2N1C(=O)OC(C)C" with its measured logP.
Result: 6.9

----------
- assay details: in vivo test of oral powder for constitution in fasted male beagle dogs (plasma Drug 4)
- assay conditions: dog, oral gavage OPC, 90 mgA Drug 4, read-out: AUC(0–24)
attribute measured: AUC(0-t)

Request: State its AUC(0-t) for this compound: CCOC(=O)N1c2ccc(C(F)(F)F)cc2[C@@H](N(Cc2cc(C(F)(F)F)cc(C(F)(F)F)c2)C(=O)OC)C[C@H]1CC [Control C7, Torcetrapib]
Result: < 200 ng·h/mL

----------
- assay details: glass transition temperature (Tg) of the drug
- Assay type: physicochemical
- assay conditions: Table B; unless noted Tg measured at less than 10% RH
Measured Tg values are reported for all entries that follow.
Form entry: value (°C) — number only.

Consider the following illustrative entries.
# compound, output unit, data value
measured = [
    ("C[C@@H]1CC[C@@]2(OC1)O[C@H]1C[C@H]3[C@@H]4CC[C@H]5C[C@@H](O[C@@H]6O[C@H](CO)[C@@H](O[C@@H]7O[C@H](COC(=O)Nc8ccccc8F)[C@@H](OC(=O)Nc8ccccc8F)[C@H](O)[C@H]7O)[C@H](O)[C@H]6O)CC[C@]5(C)[C@H]4CC(=O)[C@]3(C)[C@H]1[C@@H]2C", "°C", 143),
    ("CCC(CC)Nc1cc(C)nc(Oc2c(C)cc(C)cc2C)c1C.Cl", "°C", 87),
    ("O=C(NC(Cc1ccccc1)C(=O)N1CC(O)C1)c1cc2cc(Cl)ccc2[nH]1 (stereo not drawn)", "°C", 91),
    ("CON(C)C(=O)C(O)[C@H](Cc1ccccc1)NC(=O)c1cc2cc(Cl)ccc2[nH]1 (stereo in doubt)", "°C", 80),
    ("O=C(O)c1ccc(C(F)(F)F)cc1-c1ccc2c(c1)OCC(Cc1ccccc1)C2O (single isomer, unassigned; (+))", "°C", 53),
]

Let us examine a further case.
Request: Respond only with Tg recorded for "Cc1ncccc1CNC(=O)c1ccc2c(c1)CC[C@@H]1C[C@@](O)(CCC(F)(F)F)CC[C@@]21Cc1ccccc1"
Result: 99

----------
- assay details: aqueous solubility of the drug
- assay conditions: aqueous solution
attribute measured: solubility

Request: Please give the documented solubility of "Cc1c(O)cccc1C(=O)N[C@@H](CSc1ccccc1)[C@H](O)CN1C[C@H]2CCCC[C@H]2C[C@H]1C(=O)NC(C)(C)C"
Result: ~6 µg/mL
